Organism: Rattus norvegicus
Assay: Open TG-GATES - Regimen: Single
Assay type: toxicity, organism-based, Sprague-Dawley
Parameters: regimen Single, gender Male, age 6 weeks
Details: in vivo, po, 0 mg/kg, 24 h, tissue Blood, route gavage, dose level Control
observation type: APTT (s)
Give the number; s is assumed, so skip it.

Some entries whose results are on file:
Cn1cc[nH]c1=S	21.4
C[C@H]1C(=O)O[C@@H]2CCN3CC=C(COC(=O)[C@](C)(O)[C@]1(C)O)[C@H]23	22
O=[N+]([O-])c1ccc(O)c([N+](=O)[O-])c1	16.3
CCOC(=O)C(C)(C)Oc1ccc(Cl)cc1 [CLOFIBRATE]	18.6
C=C(C)[C@H]1Cc2c(ccc3c2O[C@@H]2COc4cc(OC)c(OC)cc4[C@@H]2C3=O)O1	15.6
OCCN1CCN(CCCN2c3ccccc3Sc3ccc(C(F)(F)F)cc32)CC1	16.8
C[C@H]1O[C@H](O[C@H]2[C@H](O)[C@@H](O)[C@@H](O[C@H]3[C@H](O)[C@@H](O)C(O)O[C@@H]3CO)O[C@@H]2CO)[C@H](O)[C@@H](O)[C@@H]1N[C@H]1C=C(CO)[C@@H](O)[C@H](O)[C@H]1O (stereo partly drawn)	19.4

Next molecule, please.
Dear colleague, I am looking for the recorded APTT of the following molecule: Cc1cccc(C)c1OCC(C)N (stereo not drawn)
20.9

====

Organism: Rattus norvegicus
Assay: Open TG-GATES - Regimen: Daily Repeat
Format: toxicity, organism-based, Sprague-Dawley
Parameters: regimen Daily Repeat, gender Male, age 6 weeks
Conditions: in vivo, po, 0 mg/kg, […], tissue Liver, route gavage, dose level Control, time 7 day
The compounds listed here are annotated with their LIVER.
Give the number; g is assumed, so skip it.

Some entries whose results are on file:
Cc1cccc(C)c1OCC(C)N (stereo not drawn) [MEXILETINE]	13.3
O=C1CN(/N=C/c2ccc([N+](=O)[O-])o2)C(=O)N1 [NITROFURANTOIN]	13
C[C@H]1C(=O)O[C@@H]2CCN3CC=C(COC(=O)[C@](C)(O)[C@]1(C)O)[C@H]23 [MONOCROTALINE]	12.7
C[C@H]1O[C@H](O[C@H]2[C@H](O)[C@@H](O)[C@@H](O[C@H]3[C@H](O)[C@@H](O)C(O)O[C@@H]3CO)O[C@@H]2CO)[C@H](O)[C@@H](O)[C@@H]1N[C@H]1C=C(CO)[C@@H](O)[C@H](O)[C@H]1O (stereo partly drawn) [ACARBOSE]	13.2
O=[N+]([O-])c1ccc(O)c([N+](=O)[O-])c1 [2,4-DINITROPHENOL]	13.1
OCCN1CCN(CCCN2c3ccccc3Sc3ccc(C(F)(F)F)cc32)CC1 [FLUPHENAZINE]	13.1

Dear colleague, I am looking for the recorded LIVER of the following compound: CCOC(=O)C(C)(C)Oc1ccc(Cl)cc1 [CLOFIBRATE]
12.5

Entry C=C(C)[C@H]1Cc2c(ccc3c2O[C@@H]2COc4cc(OC)c(OC)cc4[C@@H]2C3=O)O1 [ROTENONE] please
12.8

====

Species on record: Rattus norvegicus
Experiment: Open TG-GATES - Regimen: Daily Repeat
Type: toxicity, organism-based, Sprague-Dawley
Design: regimen Daily Repeat, gender Male, age 6 weeks
Details: in vivo, po, 0 mg/kg, […], tissue Blood, route gavage, dose level Control, time 14 day
observation type: Plat (x10_4/uL)
Give the number; x10_4/uL is assumed, so skip it.

Some entries whose results are on file:
C[C@H]1O[C@H](O[C@H]2[C@H](O)[C@@H](O)[C@@H](O[C@H]3[C@H](O)[C@@H](O)C(O)O[C@@H]3CO)O[C@@H]2CO)[C@H](O)[C@@H](O)[C@@H]1N[C@H]1C=C(CO)[C@@H](O)[C@H](O)[C@H]1O (some centres undefined)	124.4
CCOC(=O)C(C)(C)Oc1ccc(Cl)cc1 [CLOFIBRATE]	118.5
O=C1CN(/N=C/c2ccc([N+](=O)[O-])o2)C(=O)N1	117.4

Dear colleague, I am looking for the recorded Plat of the following compound: "O=[N+]([O-])c1ccc(O)c([N+](=O)[O-])c1"
130

Entry "Cn1cc[nH]c1=S" please
117.4

Entry "C[C@H]1C(=O)O[C@@H]2CCN3CC=C(COC(=O)[C@](C)(O)[C@]1(C)O)[C@H]23" please
104.7

Entry "C=C(C)[C@H]1Cc2c(ccc3c2O[C@@H]2COc4cc(OC)c(OC)cc4[C@@H]2C3=O)O1" please
125.6

Entry Cc1cccc(C)c1OCC(C)N (centres undefined) please
107.7

Entry "OCCN1CCN(CCCN2c3ccccc3Sc3ccc(C(F)(F)F)cc32)CC1" please
107.2

The reported numbers originate from ChEMBL document CHEMBL3885861.
